Test: Cytotoxic concentration required to cause microscopically detectable alteration of normal cell morphology of Vero cells
Type: cell-based
Conditions: chlorocebus sabaeus, read-out: CC50
Consider the following compounds; for each one, report its MCC.

The following compounds have reported results that may help.
compound | MCC
Cc1c(Br)cn2c(CSCCO)cnc2c1Br | > 40 µg/mL
Cc1c(Br)c(C)n2c(CSCCO)cnc2c1Br | > 200 µg/mL
CC(O)CSCc1cnc2ncccn12 (stereo not given) | > 400 µg/mL
OCCCSCc1cnc2c(Cl)cc(C(F)(F)F)cn12 | > 100 µg/mL

Hi! Can you tell me MCC for each of these compounds?
1. CCOC(=O)CSCc1cnc2cc(C)ccn12
2. COC(=O)c1nc2ccccn2c1CSCCO
3. Cc1ccn2c(CSCC(O)CO)cnc2c1 (stereo not given)
4. c1ccc(CSCc2cnc3ncccn23)cc1
5. NC(=O)c1ncn([C@@H]2O[C@H](CO)[C@@H](O)[C@H]2O)n1 [RIBAVIRIN]

> 200 µg/mL
> 400 µg/mL
> 400 µg/mL
200 µg/mL
> 400 µg/mL

# return MCC for each item in the list
1. Cc1cccc2ncc(CSCc3ccccc3)n12
2. Cc1c(Br)cn2c(CSCc3ccccc3)cnc2c1Br
3. Cc1c(Br)c(C)n2c(CSCc3ccccc3)cnc2c1Br
4. Cc1ccn2c(CSCC(C)O)cnc2c1 (stereo not given)
5. Cc1ccn2c(CSCCCO)cnc2c1

1. 40 µg/mL
2. 40 µg/mL
3. > 40 µg/mL
4. > 400 µg/mL
5. > 40 µg/mL
